System: SU-DHL-1 cells
Experiment: cells
Type: cell-based
Details: Homo sapiens, SU-DHL-1, read-out: equitoxic (IC50) concentrations
pIC50: −log10 of the molar value.
Quantity name: pIC50

1) O=C(O)CCCc1ccc(N(CCCl)CCCl)cc1 ... 5.40
